assay-system: ATP-dependent translocase ABCB1 (Homo sapiens, UniProt P08183)
Sequence (P08183 whole entry): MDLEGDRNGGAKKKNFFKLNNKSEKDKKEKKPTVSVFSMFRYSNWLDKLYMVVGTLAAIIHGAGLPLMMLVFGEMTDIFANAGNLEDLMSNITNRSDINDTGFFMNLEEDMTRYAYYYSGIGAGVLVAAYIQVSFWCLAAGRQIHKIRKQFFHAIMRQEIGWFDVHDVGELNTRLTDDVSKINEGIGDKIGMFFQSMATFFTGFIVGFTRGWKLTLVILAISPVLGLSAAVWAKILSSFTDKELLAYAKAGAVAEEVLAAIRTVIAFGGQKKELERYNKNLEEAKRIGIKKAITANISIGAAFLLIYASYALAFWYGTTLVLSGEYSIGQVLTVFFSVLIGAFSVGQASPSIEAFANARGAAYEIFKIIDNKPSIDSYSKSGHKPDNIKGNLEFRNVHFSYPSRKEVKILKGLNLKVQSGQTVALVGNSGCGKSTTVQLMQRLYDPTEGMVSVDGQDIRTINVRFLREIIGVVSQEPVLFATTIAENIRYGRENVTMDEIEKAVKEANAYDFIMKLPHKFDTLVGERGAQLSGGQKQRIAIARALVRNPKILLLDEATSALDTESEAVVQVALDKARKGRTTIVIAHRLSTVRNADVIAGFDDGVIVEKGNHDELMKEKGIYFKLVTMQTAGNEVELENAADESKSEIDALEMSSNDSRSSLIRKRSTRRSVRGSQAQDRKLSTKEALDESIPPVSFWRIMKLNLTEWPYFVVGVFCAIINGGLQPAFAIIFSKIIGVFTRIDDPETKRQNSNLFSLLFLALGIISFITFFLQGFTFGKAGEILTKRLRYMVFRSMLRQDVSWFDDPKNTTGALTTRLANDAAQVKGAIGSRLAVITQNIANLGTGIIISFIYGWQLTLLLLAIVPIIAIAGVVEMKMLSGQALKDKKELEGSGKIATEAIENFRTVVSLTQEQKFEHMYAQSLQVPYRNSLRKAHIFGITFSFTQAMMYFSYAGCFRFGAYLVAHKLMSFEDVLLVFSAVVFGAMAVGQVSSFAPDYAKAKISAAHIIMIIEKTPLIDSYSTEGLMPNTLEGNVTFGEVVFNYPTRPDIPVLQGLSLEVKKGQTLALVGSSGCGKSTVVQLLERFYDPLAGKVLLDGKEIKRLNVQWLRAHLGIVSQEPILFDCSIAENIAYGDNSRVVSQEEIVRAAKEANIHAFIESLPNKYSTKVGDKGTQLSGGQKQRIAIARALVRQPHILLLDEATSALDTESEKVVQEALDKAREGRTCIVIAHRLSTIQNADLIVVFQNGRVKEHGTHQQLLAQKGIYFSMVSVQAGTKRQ
test-method-notes: Inhibition of human ABCB1 expressed in mouse L5178 cells assessed as 50% inhibition of cell proliferation at compound-doxorubicin ratio of 81.5:1 after 48 hrs by MTT assay
Assay type: cell-based
condition-info: l5178, 48 h
Task for the reader: assign each of the following compounds its reported fractional inhibitory concentration index (FICI).

// known answers, use as guide
[
  {
    "molecule-smiles": "CC1(C)CC[C@H]([C@](C)(O)[C@H]2CC[C@@]3(O)C4=CC(=O)[C@@H]5C[C@@H](O)[C@@H](O)C[C@]5(C)[C@H]4CC[C@]23C)O1",
    "reported": 1.44
  },
  {
    "molecule-smiles": "CC(=O)[C@H]1CC[C@@]2(O)C3=CC(=O)[C@@H]4C[C@@H](O)[C@@H](O)C[C@]4(C)C3=CC[C@]12C",
    "reported": 1.21
  },
  {
    "molecule-smiles": "CC[C@H](C[C@H]1OC(C)(C)O[C@]1(C)[C@H]1CC[C@@]2(O)C3=CC(=O)[C@@H]4C[C@@H](O)[C@@H](O)C[C@]4(C)[C@H]3CC[C@]12C)C(C)(C)O",
    "reported": 0.81
  },
  {
    "molecule-smiles": "CC(C)(CC[C@@H](O)[C@](C)(O)[C@H]1CC[C@@]2(O)C3=CC(=O)[C@@H]4C[C@@H](O)CC[C@]4(C)[C@H]3CC[C@]12C)O[C@@H]1O[C@H](CO)[C@@H](O)[C@H](O)[C@H]1O",
    "reported": 1.05
  }
]

Find the recorded fractional inhibitory concentration index (FICI) belonging to CC(=O)O[C@H](CCC(C)(C)O)[C@](C)(O)[C@H]1CC[C@@]2(O)C3=CC(=O)[C@@H]4C[C@@H](O)CC[C@]4(C)[C@H]3CC[C@]12C and report it.
1.03

---

assay-system: ATP-dependent translocase ABCB1 (Homo sapiens)
test-method-notes: Inhibition of human ABCB1 expressed in mouse L5178 cells assessed as 95% inhibition of cell proliferation at compound-doxorubicin ratio of 20.4:1 after 48 hrs by MTT assay
Assay type: cell-based
condition-info: l5178, 48 h
param class (str): category from fractional inhibitory concentration index (FICI); see ranges Low: < 0.1; Mid: ≥ 0.1 and < 0.5; High: ≥ 0.5

Looking at C=C(CCCC(C)(C)O)[C@H]1CC[C@@]2(O)C3=CC(=O)[C@@H]4C[C@@H](O)[C@@H](O)[C@@H](O)[C@]4(C)[C@H]3CC[C@]12C , which class would you pick?
High

Just checking, what class would you give CC(C)(O)CC[C@H]1OC(C)(C)O[C@]1(C)[C@H]1CC[C@@]2(O)C3=CC(=O)[C@@H]4C[C@H]5OC(C)(C)O[C@H]5C[C@]4(C)[C@H]3CC[C@]12C here?
Low

// bin(item) where item = CC(=O)O[C@H]1CC[C@@]2(C)[C@@H](C1)C(=O)C=C1[C@@H]2CC[C@]2(C)[C@@H]([C@H](C)[C@@H](CCC(C)(C)OC(C)=O)OC(C)=O)CC[C@@]12O
Mid

Exercise: read the entry CC(C)CC[C@H]1OC(C)(C)O[C@]1(C)[C@H]1CC[C@@]2(O)C3=CC(=O)[C@@H]4C[C@@H](O)[C@@H](O)C[C@]4(C)[C@H]3[C@H](O)C[C@]12C and state which class it falls under.
Mid

Which category does the recorded fractional inhibitory concentration index (FICI) put CC[C@H](C[C@H]1OC(C)(C)O[C@]1(C)[C@H]1CC[C@@]2(O)C3=CC(=O)[C@@H]4C[C@H]5OC(C)(C)O[C@H]5C[C@]4(C)[C@H]3CC[C@]12C)C(C)(C)O in?
Low

---

For each record, write down the corresponding fractional inhibitory concentration index (FICI).
assay-system: ATP-dependent translocase ABCB1 (Homo sapiens)
test-method-notes: Inhibition of human ABCB1 expressed in mouse L5178 cells assessed as 95% inhibition of cell proliferation at compound-doxorubicin ratio of 81.5:1 after 48 hrs by MTT assay
Assay type: cell-based
condition-info: l5178, 48 h
Answers are plain numbers.

Each of the following entries comes with a recorded value; kindly state fractional inhibitory concentration index (FICI) for each.
1. C[C@H]([C@H](O)CCC(C)(C)O)[C@H]1CC[C@@]2(O)C3=CC(=O)[C@@H]4C[C@@H](O)[C@@H](O)C[C@]4(C)[C@H]3CC[C@]12C [ECDYSONE]
2. C[C@H]([C@H](O)CCC(C)(C)O)[C@H]1CC[C@@]2(O)C3=CC(=O)[C@@H]4C[C@@H](O)CC[C@]4(C)[C@H]3CC[C@]12C
3. CC(C)(O)CCC[C@](C)(O)[C@H]1CC[C@@]2(O)C3=CC(=O)[C@@H]4C[C@@H](O)[C@@H](O)C[C@]4(C)[C@H]3CC[C@]12C
4. CCC1=C(C)C(=O)O[C@@H]([C@](C)(O)[C@H]2CC[C@@]3(O)C4=CC(=O)[C@@H]5C[C@@H](O)[C@@H](O)C[C@]5(C)[C@H]4CC(=O)[C@]23C)C1 [AJUGALACTONE]
5. CC(=O)[C@H]1CC[C@@]2(O)C3=CC(=O)[C@@H]4C[C@@H](O)[C@@H](O)C[C@]4(C)C3=CC[C@]12C
6. CC(O)(CO)CC[C@@H](O)[C@](C)(O)[C@H]1CC[C@@]2(O)C3=CC(=O)[C@]4(O)C[C@@H](O)[C@@H](O)C[C@]4(C)[C@H]3CC[C@]12C (stereo partly specified)

1: 12.16; 2: 0.81; 3: 1.59; 4: 2.89; 5: 0.37; 6: 0.12

---

assay-system: ATP-dependent translocase ABCB1 (Homo sapiens)
test-method-notes: Inhibition of human ABCB1 expressed in mouse L5178 cells assessed as 75% inhibition of cell proliferation at compound-doxorubicin ratio of 81.5:1 after 48 hrs by MTT assay
Assay type: cell-based
condition-info: l5178, 48 h
Outcome: YES for fractional inhibitory concentration index (FICI) of at least 0.7; NO for anything lower.

Solved entries (count: 3):
[
  {
    "molecule": "C[C@H]([C@H](O)CCC(C)(C)O)[C@H]1CC[C@@]2(O)C3=CC(=O)[C@@H]4C[C@@H](O)[C@@H](O)C[C@]4(C)[C@H]3CC[C@]12C",
    "assay-system": "ATP-dependent translocase ABCB1 (Homo sapiens)",
    "category": "YES"
  },
  {
    "molecule": "CC(=O)O[C@H]1C[C@]2(C)[C@H]3CC[C@]4(C)[C@@H]([C@@](C)(O)[C@@H](CCC(C)(C)OC(C)=O)OC(C)=O)CC[C@@]4(O)C3=CC(=O)[C@]2(O)C[C@H]1OC(C)=O",
    "assay-system": "ATP-dependent translocase ABCB1 (Homo sapiens)",
    "category": "NO"
  },
  {
    "molecule": "CC(C)(O)CC[C@@H](O)[C@](C)(O)[C@H]1CC[C@@]2(O)C3=CC(=O)[C@@H]4C[C@@H](O)[C@@H](O)C[C@]4(C)[C@H]3[C@H](O)C[C@]12C",
    "assay-system": "ATP-dependent translocase ABCB1 (Homo sapiens)",
    "category": "YES"
  }
]

Next:
Please tell me: is the molecule CC(O)(CO)CC[C@@H](O)[C@](C)(O)[C@H]1CC[C@@]2(O)C3=CC(=O)[C@]4(O)C[C@@H](O)[C@@H](O)C[C@]4(C)[C@H]3CC[C@]12C (stereo not given in full) at or over 0.7 in terms of fractional inhibitory concentration index (FICI)?
NO

---

assay-system: ATP-dependent translocase ABCB1 (Homo sapiens)
test-method-notes: Inhibition of human ABCB1 expressed in mouse L5178 cells assessed as 50% inhibition of cell proliferation at compound-doxorubicin ratio of 20.4:1 after 48 hrs by MTT assay
Format: cell-based
condition-info: l5178, 48 h
assay-readout: fractional inhibitory concentration index (FICI)
One number for each entry.

Some solved entries appear below for comparison.
[
  {
    "compound": "CC(C)(O)CC[C@H]1OC(C)(C)O[C@]1(C)[C@H]1CC[C@@]2(O)C3=CC(=O)[C@@H]4C[C@@H](O)[C@@H](O)C[C@]4(C)[C@H]3CC[C@]12C",
    "reported": 0.84
  },
  {
    "compound": "CC(C)(O)CC[C@@H](O)[C@](C)(O)[C@H]1CC[C@@]2(O)C3=CC(=O)[C@]4(O)C[C@@H](O)[C@@H](O)C[C@]4(C)[C@H]3CC[C@]12C",
    "reported": 1.11
  },
  {
    "compound": "C=C(CCCC(C)(C)O)[C@H]1CC[C@@]2(O)C3=CC(=O)[C@@H]4C[C@@H](O)[C@@H](O)[C@@H](O)[C@]4(C)[C@H]3CC[C@]12C",
    "reported": 0.79
  },
  {
    "compound": "CC(C)CC[C@H]1OC(C)(C)O[C@]1(C)[C@H]1CC[C@@]2(O)C3=CC(=O)[C@@H]4C[C@@H](O)[C@@H](O)C[C@]4(C)[C@H]3[C@H](O)C[C@]12C",
    "reported": 0.52
  },
  {
    "compound": "CC(C)(O)CC[C@H]1OC(C)(C)O[C@]1(C)[C@H]1CC[C@@]2(O)C3=CC(=O)[C@@H]4C[C@@H](O)CC[C@]4(C)[C@H]3CC[C@]12C",
    "reported": 0.88
  }
]

Please supply fractional inhibitory concentration index (FICI) for each of the following items, keeping them in order.
1. CC(=O)O[C@H]1CC[C@@]2(C)[C@@H](C1)C(=O)C=C1[C@@H]2CC[C@]2(C)[C@@H]([C@H](C)[C@@H](CCC(C)(C)O)OC(C)=O)CC[C@@]12O
2. CC(=O)O[C@H]1CC[C@@]2(C)[C@@H](C1)C(=O)C=C1[C@@H]2CC[C@]2(C)[C@@H]([C@H](C)[C@@H](CCC(C)(C)OC(C)=O)OC(C)=O)CC[C@@]12O
3. CC(C)(O)CC[C@@H](O)[C@](C)(O)[C@H]1CC[C@@]2(O)C3=CC(=O)[C@H]4C[C@@H](O)C[C@@H](O)[C@]4(C)[C@H]3CC[C@]12C
4. CC(C)CC[C@H]1OC(C)(C)O[C@]1(C)[C@H]1CC[C@@]2(O)C3=CC(=O)[C@@H]4C[C@H]5OC(C)(C)O[C@H]5C[C@]4(C)C3=CC[C@]12C
5. CC(C)CC[C@H]1OC(C)(C)O[C@]1(C)[C@H]1CC[C@@]2(O)C3=CC(=O)[C@@H]4C[C@H]5OC(C)(C)O[C@H]5C[C@]4(C)[C@H]3[C@H](O)C[C@]12C
6. CC1(CC[C@H]2OC(C)(C)O[C@]2(C)[C@H]2CC[C@@]3(O)C4=CC(=O)[C@@H]5C[C@H]6OC(C)(C)O[C@H]6C[C@]5(C)[C@H]4CC[C@]23C)COC(C)(C)O1 (stereo not given in full)
7. CC(C)(O)CC[C@@H](O)[C@](C)(O)[C@H]1CC[C@@]2(O)C3=CC(=O)[C@@H]4C[C@@H](O)[C@@H](O)C[C@]4(C)[C@H]3CC[C@]12C [20-HYDROXYECDYSONE]

1. 1.5
2. 0.41
3. 2.48
4. 0.19
5. 0.18
6. 0.23
7. 2

Go through the list and state fractional inhibitory concentration index (FICI) for each entry.
1. CC[C@H](C[C@H]1OC(C)(C)O[C@]1(C)[C@H]1CC[C@@]2(O)C3=CC(=O)[C@@H]4C[C@H]5OC(C)(C)O[C@H]5C[C@]4(C)[C@H]3CC[C@]12C)C(C)(C)O
2. CC(C)CC[C@H](O)[C@](C)(O)[C@H]1CC[C@@]2(O)C3=CC(=O)[C@@H]4C[C@@H](O)[C@@H](O)C[C@]4(C)[C@H]3[C@H](O)C[C@]12C
3. CC(=O)O[C@H]1C[C@@]2(C)[C@@H](C[C@H]1OC(C)=O)C(=O)C=C1[C@@H]2CC[C@]2(C)[C@@H]([C@@](C)(O)[C@@H](CCC(C)(C)OC(C)=O)OC(C)=O)CC[C@@]12O

0.19
1.79
0.73
